- Test system: 156681-154-R-J1-PDC complex spheroid viability
- Assay info: Anticancer human tumor 156681-154-R-J1-PDC patient-derived melanoma cell line growth inhibition [CLK]; active = viability on the fitted dose curve at most 10% of control; inactive = the rest
- Assay context: second compound 0.316 µM; first compound 0.316 µM
Permitted responses: active, inactive

Use the examples below as a reference point.
[ask] Check the results log: what was the call for CC(Nc1ccc2c(c1)OCCn1cc(N3C(=O)OCC3C(F)F)nc1-2)C(N)=O (centres undefined) + CN1CCN(c2cc(C(=O)Nc3cc4cc(-c5cnn(C)c5)ccc4cn3)ccn2)CC1 ?
[reply] inactive

[ask] // repeat for CC1(C)CCC(CN2CCN(c3ccc(C(=O)NS(=O)(=O)c4ccc(NCC5CCOCC5)c([N+](=O)[O-])c4)c(Oc4cnc5[nH]ccc5c4)c3)CC2)=C(c2ccc(Cl)cc2)C1 + CNC(=O)c1ccc(Nc2nc(OC3CCCC3)c3c(-c4ccc5nc(C)oc5c4)c[nH]c3n2)c(OC)c1 and report
[reply] inactive

[ask] Can you handle COc1ccc([C@@H](O)c2cc(-c3ncnc4cc(N5CCOCC5)ccc34)c(F)cc2Cl)nn1 + CNC(=O)c1ccc(Nc2nc(OC3CCCC3)c3c(-c4ccc5nc(C)oc5c4)c[nH]c3n2)c(OC)c1 next?
[reply] inactive

As a next step, examine the compound that follows.
[ask] Kindly provide the recorded test outcome for the following compound: COC1C=CCC(C)C(C)S(=O)(=O)NC(=O)c2ccc3c(c2)N(CC2CCC21)CC1(CCCc2cc(Cl)ccc21)CO3 (centres undefined) + CNC(=O)c1ccc(Nc2nc(OC3CCCC3)c3c(-c4ccc5nc(C)oc5c4)c[nH]c3n2)c(OC)c1
[reply] inactive

* * *

- Test system: 156681-154-R-J1-PDC complex spheroid viability
- Assay info: Anticancer human tumor 156681-154-R-J1-PDC cell line growth inhibition [CLK];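 also: spheroids exposed to the agents for seven days; 100% = DMSO vehicle control viability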
- Assay context: second compound 0.316 µM; first compound 0.316 µM; stronger effect = lower value
// returns Criterion not met unless viability, T/C is strictly below 20%, in which case Criterion met

[ask] # strict comparison: is reported viability, T/C < 20%? input = CC1COCCN1c1cc(C2(S(C)(=N)=O)CC2)nc(-c2ccnc3[nH]ccc23)n1 (stereo unspecified) + CNC(=O)c1ccc(Nc2nc(OC3CCCC3)c3c(-c4ccc5nc(C)oc5c4)c[nH]c3n2)c(OC)c1
[reply] Criterion not met

[ask] # repeat for CCN1CCN(Cc2ccc(Nc3ncc(F)c(-c4cc(F)c5nc(C)n(C(C)C)c5c4)n3)nc2)CC1 + CN1CCN(c2cc(C(=O)Nc3cc4cc(-c5cnn(C)c5)ccc4cn3)ccn2)CC1
[reply] Criterion met

[ask] How about this compound: CC(CO)NC(=O)c1cc(-c2ccc(Cl)cc2)nn(-c2cnn(C)c2)c1=O (stereo unspecified) + CNC(=O)c1ccc(Nc2nc(OC3CCCC3)c3c(-c4ccc5nc(C)oc5c4)c[nH]c3n2)c(OC)c1
[reply] Criterion not met

[ask] Next entry: CCc1c2c(nc3ccc(O)cc13)-c1cc3c(c(=O)n1C2)COC(=O)[C@]3(O)CC + CNC(=O)c1ccc(Nc2nc(OC3CCCC3)c3c(-c4ccc5nc(C)oc5c4)c[nH]c3n2)c(OC)c1
[reply] Criterion met

[ask] Next: Nc1ccn(C2OC(CO)C(O)C2(F)F)c(=O)n1 (stereo unspecified) + CN1CCN(c2cc(C(=O)Nc3cc4cc(-c5cnn(C)c5)ccc4cn3)ccn2)CC1
[reply] Criterion met

* * *

- Test system: 156681-154-R-J1-PDC complex spheroid viability
- Assay info: Anticancer human tumor 156681-154-R-J1-PDC cell line growth inhibition [CLK]; active = viability on the fitted dose curve at most 10% of control; inactive = the rest;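 also: spheroids exposed to the agents for seven days; 100% = DMSO vehicle control viability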
- Assay context: second compound 0.316 µM; first compound 0.316 µM
Tick one outcome: active, inactive

Worked examples follow.
[ask] Returns: the outcome recorded for COc1cccc2c1C(=O)c1c(O)c3c(c(O)c1C2=O)CC(O)(C(=O)CO)CC3OC1CC(N)C(O)C(C)O1 (stereo not given) + CNC(=O)c1ccc(Nc2nc(OC3CCCC3)c3c(-c4ccc5nc(C)oc5c4)c[nH]c3n2)c(OC)c1 in this assay.
[reply] active

[ask] What about this compound? COC1C=CCC(C)C(C)S(=O)(=O)NC(=O)c2ccc3c(c2)N(CC2CCC21)CC1(CCCc2cc(Cl)ccc21)CO3 (stereo not given) + CN1CCN(c2cc(C(=O)Nc3cc4cc(-c5cnn(C)c5)ccc4cn3)ccn2)CC1
[reply] inactive

[ask] Same question, O=C(c1cc(Cc2n[nH]c(=O)c3ccccc23)ccc1F)N1CCN(C(=O)C2CC2)CC1 + CNC(=O)c1ccc(Nc2nc(OC3CCCC3)c3c(-c4ccc5nc(C)oc5c4)c[nH]c3n2)c(OC)c1 this time
[reply] inactive

[ask] Ok, now CC1(C)CCC(CN2CCN(c3ccc(C(=O)NS(=O)(=O)c4ccc(NCC5CCOCC5)c([N+](=O)[O-])c4)c(Oc4cnc5[nH]ccc5c4)c3)CC2)=C(c2ccc(Cl)cc2)C1 + CN1CCN(c2cc(C(=O)Nc3cc4cc(-c5cnn(C)c5)ccc4cn3)ccn2)CC1
[reply] inactive

[ask] What would you report for CCc1c2c(nc3ccc(O)cc13)-c1cc3c(c(=O)n1C2)COC(=O)[C@]3(O)CC + CN1CCN(c2cc(C(=O)Nc3cc4cc(-c5cnn(C)c5)ccc4cn3)ccn2)CC1 ?
[reply] active

Continuing:
[ask] What is the recorded call for this compound in the test? CC(Nc1ccc2c(c1)OCCn1cc(N3C(=O)OCC3C(F)F)nc1-2)C(N)=O (stereo not given) + CNC(=O)c1ccc(Nc2nc(OC3CCCC3)c3c(-c4ccc5nc(C)oc5c4)c[nH]c3n2)c(OC)c1
[reply] inactive

[ask] Thanks! And C=C(F)C(=O)N1CCN(c2nc(OCC3CCCN3C)nc3c2CCN(c2cccc4cccc(Cl)c24)C3)CC1CC#N (stereo not given) + CN1CCN(c2cc(C(=O)Nc3cc4cc(-c5cnn(C)c5)ccc4cn3)ccn2)CC1 ?
[reply] inactive

[ask] Now give it for CC(=O)O[C@H]1C(=O)[C@@]2(C)[C@H]([C@H](OC(=O)c3ccccc3)[C@]3(O)C[C@H](OC(=O)[C@H](O)[C@@H](NC(=O)c4ccccc4)c4ccccc4)C(C)=C1C3(C)C)[C@]1(OC(C)=O)CO[C@@H]1C[C@@H]2O + CN1CCN(c2cc(C(=O)Nc3cc4cc(-c5cnn(C)c5)ccc4cn3)ccn2)CC1 too.
[reply] inactive

[ask] Nc1ccn(C2OC(CO)C(O)C2(F)F)c(=O)n1 (stereo not given) + CNC(=O)c1ccc(Nc2nc(OC3CCCC3)c3c(-c4ccc5nc(C)oc5c4)c[nH]c3n2)c(OC)c1 ?
[reply] inactive

[ask] Could you do the same for COc1ccc([C@@H](O)c2cc(-c3ncnc4cc(N5CCOCC5)ccc34)c(F)cc2Cl)nn1 + CN1CCN(c2cc(C(=O)Nc3cc4cc(-c5cnn(C)c5)ccc4cn3)ccn2)CC1 , please?
[reply] inactive

* * *

- Tested on: 156681-154-R-J1-PDC complex spheroid viability
- Assay info: Anticancer human tumor 156681-154-R-J1-PDC cell line growth inhibition [CLK]; active = viability on the fitted dose curve at most 10% of control; inactive = the rest;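 also: spheroids exposed to the agents for seven days; 100% = DMSO vehicle control viability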
- Assay context: second compound 3.16 µM; first compound 1 µM
Please reply with one of these outcomes: 1 (active), -1 (inactive)

// known answers, use as guide
[ask] Look up the recorded call for C=CC(=O)N1CCN(c2nc(=O)n(-c3c(C)ccnc3C(C)C)c3nc(-c4c(O)cccc4F)c(F)cc23)C(C)C1 (stereo not given) + CNC(=O)c1ccc(Nc2nc(OC3CCCC3)c3c(-c4ccc5nc(C)oc5c4)c[nH]c3n2)c(OC)c1 in this test.
[reply] -1

[ask] Subsequent entry: CCN1CCN(Cc2ccc(Nc3ncc(F)c(-c4cc(F)c5nc(C)n(C(C)C)c5c4)n3)nc2)CC1 + CN1CCN(c2cc(C(=O)Nc3cc4cc(-c5cnn(C)c5)ccc4cn3)ccn2)CC1
[reply] 1

Continuing:
[ask] Identify the outcome logged in this assay for the molecule shown: CC(CO)NC(=O)c1cc(-c2ccc(Cl)cc2)nn(-c2cnn(C)c2)c1=O (stereo not given) + CNC(=O)c1ccc(Nc2nc(OC3CCCC3)c3c(-c4ccc5nc(C)oc5c4)c[nH]c3n2)c(OC)c1
[reply] -1

[ask] Same thing, different molecule: Nc1ccccc1NC(=O)c1ccc(CNC(=O)OCc2cccnc2)cc1 + CN1CCN(c2cc(C(=O)Nc3cc4cc(-c5cnn(C)c5)ccc4cn3)ccn2)CC1
[reply] 1

[ask] Do the same for C#Cc1c(F)ccc2cc(O)cc(-c3ncc4c(N5CC6CCC(C5)N6)nc(OCC56CCCN5CC(F)C6)nc4c3F)c12 (stereo not given) + CNC(=O)c1ccc(Nc2nc(OC3CCCC3)c3c(-c4ccc5nc(C)oc5c4)c[nH]c3n2)c(OC)c1 please
[reply] -1

* * *

- Test system: 156681-154-R-J1-PDC complex spheroid viability
- Assay info: Anticancer human tumor 156681-154-R-J1-PDC cell line growth inhibition [CLK];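 also: spheroids exposed to the agents for seven days; 100% = DMSO vehicle control viability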
- Assay context: second compound 10 µM; first compound 1 µM; stronger effect = lower value
Measure: viability, T/C (%)
The reply should contain only the number, in %.

Guide cases for viability, T/C, answers given:
[ask] Give viability, T/C (156681-154-R-J1-PDC complex spheroid viability) of the following compound: CC(CO)NC(=O)c1cc(-c2ccc(Cl)cc2)nn(-c2cnn(C)c2)c1=O (stereo unspecified) + CN1CCN(c2cc(C(=O)Nc3cc4cc(-c5cnn(C)c5)ccc4cn3)ccn2)CC1
[reply] 1.31

[ask] What do you have for C#Cc1c(F)ccc2cc(O)cc(-c3ncc4c(N5CC6CCC(C5)N6)nc(OCC56CCCN5CC(F)C6)nc4c3F)c12 (stereo unspecified) + CNC(=O)c1ccc(Nc2nc(OC3CCCC3)c3c(-c4ccc5nc(C)oc5c4)c[nH]c3n2)c(OC)c1 ?
[reply] 50

[ask] Param item: CCCS(=O)(=O)Nc1ccc(F)c(C(=O)c2c[nH]c3ncc(-c4ccc(Cl)cc4)cc23)c1F + CN1CCN(c2cc(C(=O)Nc3cc4cc(-c5cnn(C)c5)ccc4cn3)ccn2)CC1
[reply] 0.21

[ask] Would you mind doing CCN1CCN(Cc2ccc(Nc3ncc(F)c(-c4cc(F)c5nc(C)n(C(C)C)c5c4)n3)nc2)CC1 + CN1CCN(c2cc(C(=O)Nc3cc4cc(-c5cnn(C)c5)ccc4cn3)ccn2)CC1 as well?
[reply] 3.25

[ask] Let us now turn to C=CC(=O)N1CCN(c2nc(=O)n(-c3c(C)ccnc3C(C)C)c3nc(-c4c(O)cccc4F)c(F)cc23)C(C)C1 (stereo unspecified) + CN1CCN(c2cc(C(=O)Nc3cc4cc(-c5cnn(C)c5)ccc4cn3)ccn2)CC1
[reply] 0.17

Further cases:
[ask] Requested read-out viability, T/C, target or system 156681-154-R-J1-PDC complex spheroid viability, entry COc1ccc([C@@H](O)c2cc(-c3ncnc4cc(N5CCOCC5)ccc34)c(F)cc2Cl)nn1 + CN1CCN(c2cc(C(=O)Nc3cc4cc(-c5cnn(C)c5)ccc4cn3)ccn2)CC1
[reply] 0.88

[ask] // next record CC(Nc1ccc2c(c1)OCCn1cc(N3C(=O)OCC3C(F)F)nc1-2)C(N)=O (stereo unspecified) + CNC(=O)c1ccc(Nc2nc(OC3CCCC3)c3c(-c4ccc5nc(C)oc5c4)c[nH]c3n2)c(OC)c1
[reply] 17.7

[ask] Would you mind doing O=c1[nH]cc(F)c(=O)[nH]1 + CNC(=O)c1ccc(Nc2nc(OC3CCCC3)c3c(-c4ccc5nc(C)oc5c4)c[nH]c3n2)c(OC)c1 as well?
[reply] 45.4

[ask] What about this compound? Nc1ccccc1NC(=O)c1ccc(CNC(=O)OCc2cccnc2)cc1 + CNC(=O)c1ccc(Nc2nc(OC3CCCC3)c3c(-c4ccc5nc(C)oc5c4)c[nH]c3n2)c(OC)c1
[reply] 22.6

[ask] Next entry: CC1COCCN1c1cc(C2(S(C)(=N)=O)CC2)nc(-c2ccnc3[nH]ccc23)n1 (stereo unspecified) + CNC(=O)c1ccc(Nc2nc(OC3CCCC3)c3c(-c4ccc5nc(C)oc5c4)c[nH]c3n2)c(OC)c1
[reply] 30.7

[ask] Follow-up item: COc1cccc2c1C(=O)c1c(O)c3c(c(O)c1C2=O)CC(O)(C(=O)CO)CC3OC1CC(N)C(O)C(C)O1 (stereo unspecified) + CN1CCN(c2cc(C(=O)Nc3cc4cc(-c5cnn(C)c5)ccc4cn3)ccn2)CC1
[reply] 0.12
